Provide the recorded percent inhibition of rat DGAT2 for the entries that follow.
# Tested on: rat DGAT2 mRNA
# PROTOCOL NOTES: Dose-dependent inhibition of DGAT2 in A10 cells (Tables 82, 83)
# Assay type: cell-based
# CONDITION DESCRIPTION: 150 nM (Table 83)
Strand notation (5' to 3'): a small letter for the sugar, then the base; units joined by * are phosphorothioate-linked, units joined directly phosphodiester-linked; [ ] holds rarer units or linkages, { } end groups; capitals alone tell only the bases. e = 2'-O-(2-methoxyethyl) (MOE); [5mC] = 5-methylcytosine; d = 2'-deoxy (DNA)
# value in %; strip the unit string

Record 372580 (antisense eG*eG*dT*dT*dG*dT*dG*dT*dG*dT*d[5mC]*dT*eT*e[5mC]) [compound 372580] , field percent inhibition of rat DGAT2: 42

Record 372546 (antisense eT*eT*eG*dG*dT*d[5mC]*dT*dT*dG*dT*dG*dA*dT*eT*eG*eT) [compound 372546] , field percent inhibition of rat DGAT2: 78

Record 372503 (antisense eG*e[5mC]*eA*dG*dG*dT*dT*dG*dT*dG*dT*dG*dT*e[5mC]*eT*eT) [compound 372503] , field percent inhibition of rat DGAT2: 80

Record 372508 (antisense eA*eG*eT*dT*d[5mC]*d[5mC]*dT*dG*dG*dT*dG*dG*dT*e[5mC]*eA*eG) [compound 372508] , field percent inhibition of rat DGAT2: 71

Record 372624 (antisense eT*eG*dG*dT*d[5mC]*dT*dT*dG*dT*dG*dA*dT*eT*eG) [compound 372624] , field percent inhibition of rat DGAT2: 38

Record 372618 (antisense eG*eT*dG*dG*dT*dA*d[5mC]*dA*dG*dG*dT*d[5mC]*eG*eA) [compound 372618] , field percent inhibition of rat DGAT2: 60

Record 372602 (antisense e[5mC]*e[5mC]*dA*dG*dG*d[5mC]*dA*dT*dG*dG*dA*dG*e[5mC]*eT) [compound 372602] , field percent inhibition of rat DGAT2: 51

Record 372516 (antisense eT*eA*e[5mC]*dA*dG*dA*dA*dG*dG*d[5mC]*dA*d[5mC]*d[5mC]*e[5mC]*eA*eG) [compound 372516] , field percent inhibition of rat DGAT2: 81

Record 372500 (antisense eG*eT*eG*dT*dG*dT*d[5mC]*dT*dT*d[5mC]*dA*d[5mC]*d[5mC]*eA*eG*e[5mC]) [compound 372500] , field percent inhibition of rat DGAT2: 88

Record 372530 (antisense eT*e[5mC]*eG*dG*d[5mC]*d[5mC]*d[5mC]*d[5mC]*dA*dG*dG*dA*dG*e[5mC]*e[5mC]*e[5mC]) [compound 372530] , field percent inhibition of rat DGAT2: 78
